# credit: patent US9896418B2

Tested on: 786-O cells
Assay: VEGF ELISA Assay
Format: cell-based
Details: 786-O cells
Measured EC50 of individual entries
Write the numeric value and append its unit.

Below: 2 molecules and their reported EC50.
> print(dat)
                                   molecule  metric   result
1  CS(=O)(=NC#N)c1ccc(Oc2cc(F)cc(C#N)c2)c2c1[C@H](O)C(F)(F)C2 (single isomer, unassigned) [Example 245]    EC50   160 nM
2  N#Cc1cc(F)cc(Oc2ccc(S(=N)(=O)C(F)(F)F)c3c2CC(F)(F)[C@H]3O)c1 (single isomer, unassigned) [Example 306]    EC50  19.2 nM

Input line: So what does the record say about EC50 for CS(=O)(=NC#N)c1ccc(Oc2cc(F)cc(C#N)c2)c2c1[C@H](O)C(F)(F)[C@@H]2F (single isomer, unassigned) [Example 317] ?
Output line: 14 nM

---

System: HIF-2α HIS TAG-PASB Domain
Assay: HIF-2α Scintillation Proximity Assay (SPA)
Type: binding
pIC50: −log10 of the molar value.
# if value of pIC50 reaches 7, tag Satisfied; if it stays below, tag Not satisfied

Past entries and their recorded results:
> print(dat)
                                   compound            target.or.system       category
1  N#Cc1cncc(Oc2ccc(S(N)(=O)=O)c3c2CC(F)(F)[C@H]3O)c1  HIF-2α HIS TAG-PASB Domain  Not satisfied
2  O=S(=O)(c1ccc(Oc2cc(F)cc(Cl)c2)c(Br)c1)C(F)F  HIF-2α HIS TAG-PASB Domain  Not satisfied
3  Cc1c(Oc2cc(F)cc(Cl)c2)ccc(S(=O)(=O)C(F)(F)F)c1Br  HIF-2α HIS TAG-PASB Domain      Satisfied

Input line: Assess whether reported pIC50 for NCc1c(S(=O)(=O)C(F)F)ccc(Oc2cc(F)cc(Cl)c2)c1Br sits at 7 or higher.
Output line: Not satisfied

Input line: Assess whether reported pIC50 for CS(=O)(=O)c1ccc(Oc2cncc(F)c2)c2c1[C@H](O)C(F)(F)[C@H]2F sits at 7 or higher.
Output line: Not satisfied

Input line: Assess whether reported pIC50 for O=S(=O)(c1ccc(Oc2cc(F)c[n+]([O-])c2)c2c1[C@H](O)C(F)(F)C2)C(F)(F)F sits at 7 or higher.
Output line: Satisfied

---

System: HIF-2α HIS TAG-PASB Domain
Experiment: HIF-2α Scintillation Proximity Assay (SPA)
Assay type: binding
Measured IC50 of individual entries
Report only the number, with the unit nM understood.

> print(dat)
                                   molecule            target.or.system  metric  result.units  quantitative.result
1  CNS(=O)(=O)c1ccc(Oc2cc(F)cc(F)c2)c2c1C(O)CC2 (centres unmarked) [Compound 211]  HIF-2α HIS TAG-PASB Domain    IC50            nM                 2100
2  N#CN=S(=O)(CF)c1ccc(Oc2cc(F)cc(C#N)c2)c2c1[C@H](O)CC2 (some centres unmarked) [Compound 283]  HIF-2α HIS TAG-PASB Domain    IC50            nM                 1400
3  CS(=O)(=O)c1ccc(Oc2cncc(Br)c2)c2c1[C@H](O)[C@H](F)C2 [Compound 326]  HIF-2α HIS TAG-PASB Domain    IC50            nM                 1280
4  O=S(=O)(c1ccc(Oc2ccc3[nH]ncc3c2)c2c1C(O)C(F)(F)C2)C(F)(F)F (centres unmarked) [Compound 238]  HIF-2α HIS TAG-PASB Domain    IC50            nM                 4900
5  Cc1c([S+]([O-])C(F)F)ccc(Oc2cc(F)cc(Cl)c2)c1C#N (centres unmarked) [Compound 37]  HIF-2α HIS TAG-PASB Domain    IC50            nM                 6700

Input line: So what does the record say about IC50 for CS(=O)(=O)c1ccc(Oc2cncc(C#N)c2)c2c1[C@H](O)C(F)(F)[C@H]2F [Compound 343] ?
Output line: 23900

Input line: So what does the record say about IC50 for CS(=O)(=O)c1cc(F)c(Oc2cc(F)cc(C#N)c2)c2c1C(O)C(F)(F)C2 (centres unmarked) [Compound 219] ?
Output line: 17000

Input line: So what does the record say about IC50 for N#CN=S(=O)(CF)c1ccc(Oc2cc(F)cc(C#N)c2)c2c1[C@H](O)C(F)(F)C2 (single isomer, unassigned) [Example 286] ?
Output line: 24

Input line: So what does the record say about IC50 for O=S(=O)(c1ccc(Oc2cc(F)cc(Cl)c2)c(Cl)c1Cn1ccnc1)C(F)F [Compound 45] ?
Output line: 6100

Input line: So what does the record say about IC50 for O=S(=O)(c1ccc(Oc2cc(F)cc(Cl)c2)c(Cl)c1)C(F)(F)F [Compound 128] ?
Output line: 150

Input line: So what does the record say about IC50 for O=S(=O)(CF)c1ccc(Oc2cc(F)cc(Cl)c2)c(Br)c1 [Compound 137] ?
Output line: 560

Input line: So what does the record say about IC50 for CS(=O)(=O)c1ccc(Oc2cncc(Cl)c2)c2c1[C@H](O)C(F)(F)[C@H]2F [Compound 332] ?
Output line: 2330

Input line: So what does the record say about IC50 for O=S(=O)(c1ccc(Oc2cc(F)cc(Cl)c2)c(Br)c1CNCCO)C(F)(F)F [Compound 108] ?
Output line: 5800

Input line: So what does the record say about IC50 for O=C1c2c(S(=O)(=O)C(F)F)ccc(Oc3ccc(F)c(F)c3)c2CC1(F)F [Compound 195] ?
Output line: 110
